I'd appreciate it if you could supply apparent KD of MS2 coat protein values for the items below.
test system: MS2 coat protein; test: apparent KD of MS2 coat protein; designed switch direction (-1 OFF switch, 1 ON switch): -1; higher = weaker reporter binding; conditions: Eterna round: R95; input ligand: microRNA oligo, concentration not stated
Give bare numbers, in µM.

AAGAGUGCAGGAUAUACUUGGUAGGGCGGGUGGAUGAAGUGACAUGAGGAUCACCCAUGUAGAAGGGCAGAGAG [JR_Exclu2_Sub055] (puzzle: Exclusion 2): 0.0214

Count: 4. Required value per item: apparent KD of MS2 coat protein.
1. UUUUUGUGAGGAUAUCAGUAGUAAAAAAAUAAAAUUACUACUGAGAAGGCACAUGAGGAUCACCCAUGUUUUUU [salish99_ex4_r3_013] (puzzle: Exclusion 4)
2. AUGAGACAUGAGGAUCACCCAUGUGAGGAUAUGUAUGGAUGUUGGAAAGAAUGAGAGAACAGAAGGCACGUAGA [JR_Exclu1_Sub063] (puzzle: Exclusion 1)
3. UGGUAACAUGAGGAUCACCCAUGUCAGGAUAUCAGGAAGAAGAGAGGAGAGGAGAAGAUGAGAAGGGACUAUAU [Excluse me! 11 - Jieux - Exclusion 1] (puzzle: Exclusion 1)
4. CUGGUCCGAGGAUAUAUUAAGUGAUACAUGAGGAUCACCCAUGUAAUUUGAUGGAAGUAAAUAGAAGGCGGACUAG [Mat - Exclusion 5 - JL mod - D45] (puzzle: Exclusion 5)

Reply:
[0.0433, 0.104, 0.0198, 0.043]

Count: 6. Required value per item: apparent KD of MS2 coat protein.
1. GAGUACUUAGGAUAUACAUGAGGAUCACCCAUGUCUAGGCGGCGCUGGGUCCCUCGCAGUAGAAGGAAGCGCUG [Ceeranat] (puzzle: Exclusion 3)
2. UUCUUUGUUGUGAGGAUAUCGUAUUCUUUUUGUUACGAGAAGGCACAUGAGGAUCACCCAUGUUUCUUGAUGUU [JR_BMOE4_Sub068] (puzzle: Brourd's mod of Exclusion 4)
3. CUGGUCCGAGGAUAUAUUAAGUGAUACAUGAGGAUCACCCAUGUAAUUUAAUGGAUAUAAAUAGAAGGCGGACUAG [Mat - Exclusion 5 - JL mod - D48] (puzzle: Exclusion 5)
4. GCCUCACAUGAGGAUCACCCAUGUCAGGAUAUCUAAGGCGAAGUGCAAGCACCUCGUGAGAGAAGGGACGUCAA [Dienononen] (puzzle: Exclusion 1)
5. UGGCUGCUCAGGGAGUGUGACAUGAGGAUCACCCAUGUGGUAGUAAGGAACAAGCUUUUUACACGUACUUAUAAAGC [JR_SV3TOV1_Sub011] (puzzle: Sensor v3, turn-off variant 1)
6. AAAAAACAAGGAUAUACUAAAAAAAAAUGUGUUAAUUUUUCACAUGAGGAUCACCCAUGUAGAAGGUGUUAAAA [JR_Exclusion2_Sub006] (puzzle: Exclusion 2)

Reply:
1: 0.0206; 2: 0.0167; 3: 0.0264; 4: 0.0209; 5: 0.135; 6: 0.079

----------
tested on: MS2 coat protein; test: apparent KD of MS2 coat protein; higher = weaker reporter binding; details: Eterna round: R107; input ligand: theophylline 20 uM
I'd appreciate it if you could supply apparent KD of MS2 coat protein values for the items below.
One number for each entry, in nM.

AUGCAGAACACGGCCGCCACUCAUUGUAGACAUGAGGAUCACCCAUGUAAUAGGGAUAUUUUAUUGAGGACCGGGUGUAAUGCAA [JR_SSTryptoB_Sub013]: 77.6
AGUCUUAGUGGAAGGAGCGCAGUCAUAACAUGAGGAUCACCCAUGUCGAGGUGAGGGUCAUUGCAGGUAGGUCGCCAUAAUAGGA [#16 Same State - Arginine B]: 355
AAUCUGUCGGGUGAUACCAGCCUCGGCGCAUCUCACGCUGAACAUGAGGAUCACCCAUGUGGCCCUUGGCAGCACAUGACAAAUC [Tivece]: 709
AGCUCGCAUCCUCUAGCGUCAAAGACGCGUCGAGGACCGGUACGGCCGCCACUCGACGUGAGGAUCACCCACGUCUAAGCGAGCA [TrypAX 10 #SwitchBubble #AlternativeMS2 #MS2Late #CuTurnoff]: 31.7

Now examine the next entry.
Task item: Look up apparent KD of MS2 coat protein for this sequence: UAAAAUAUCUGGGUGUAGGUAAUAACAGAUACCAGCCAGAUAACUGGCCCUUGGCAGCUGAAAACAUGAGGAUCACCCAUGUAAA [TheoAS 22 #OpenEnded #Ms2Late]
Reply: 50.3

The measured values listed here are drawn from the supplement of paper PMC9170038.
